system: Neuro-2a; assay: neurite formation score, plate-normalized to DMSO control mean 5.04 (score (0-8 scale)); higher = more or longer neurites; conditions: 1 µM
Quick rule for you: neurite formation score at 5 or higher means 1 (yes), lower means 0 (no).

| compound | group |
| --- | --- |
| CC(C)(C)c1ccc(S(=O)(=O)/C=C/C#N)cc1 | 0 (no) |
| CN(C)C1CCN(C(=O)c2ccc(NC(=O)Nc3ccc(-c4nc(N5CCOCC5)nc(N5CCOCC5)n4)cc3)cc2)CC1 | 0 (no) |
| CCCNC(=O)Nc1ccc(Oc2ncnc3cc(OC)c(OC)cc23)cc1Cl | 1 (yes) |
| Cc1cc2c(F)c(Oc3ncnn4cc(OC[C@@H](C)O)c(C)c34)ccc2[nH]1 | 0 (no) |
| COc1cc(Nc2nc3ccccc3nc2NS(=O)(=O)c2ccc(NC(=O)c3ccc(C)c(OC)c3)cc2)cc(OC)c1 | 0 (no) |
| Cc1cc(Nc2nc(N[C@@H](C)c3ncc(F)cn3)ncc2Cl)[nH]n1 | 0 (no) |
| COc1cc(Nc2ncc(F)c(Nc3ccc4c(n3)NC(=O)C(C)(C)O4)n2)cc(OC)c1OC | 1 (yes) |
| CN1CCC(CNc2ccc3ncc(-c4cccc(OC(F)(F)F)c4)n3n2)CC1 [SGI-1776 free base] | 1 (yes) |
| C[C@H]1Oc2cc(cnc2N)-c2c(nn(C)c2C#N)CN(C)C(=O)c2ccc(F)cc21 | 0 (no) |
| C[C@@H]1CCNC(=O)c2cc3ccc(C(=O)Nc4nc5ccccc5n4CCCN(C)C)cc3n21 | 1 (yes) |
| Cn1c(=O)n(-c2ccc(C(C)(C)C#N)cc2)c2c3cc(-c4cnc5ccccc5c4)ccc3ncc21 | 0 (no) |
| CCc1cncnc1N1CCN(Cc2nc3ccc(C(F)(F)F)cc3[nH]2)CC1 | 0 (no) |
| FC(F)c1nc2ccccc2n1-c1nc(N2CCOCC2)nc(N2CCOCC2)n1 | 0 (no) |
| Cc1ncc(CCCN(C)C)cc1Nc1ncc2c(n1)-c1ccc(C(F)(F)F)cc1NC(=S)C2 | 1 (yes) |
